# System: 15-PGDH luciferase fusion construct in LS174T reporter cell line
# assayName: 15-PGDH-luciferase fusion gene reporter induction, LS174T cells
# Assay type: cell-based
# testConditions: Homo sapiens, read-out: LS174T reporter activity ([…]), […], % increased luciferase activity over basal level, read-out: LS174T reporter activity (7.5 uM)
I'd appreciate it if you could supply activation at […] values for the items below.
One number for each entry, in %.

Some solved cases for reference:
CCCCC[S+]([O-])c1sc2nc(-c3cccs3)cc(-c3ccccc3)c2c1N (stereo not drawn) [SW208080]	117
CCOC(=O)c1sc2nc(-c3cccs3)cc(-c3ccccc3)c2c1N [SW206978]	26.2

Fill in activation at […] for each of the 4 compounds listed.
1. NC(=O)c1sc2nc(-c3cccs3)cc(-c3ccc(F)cc3)c2c1N [compound 980653]
2. CCCC[S+]([O-])c1ncccc1N (stereo not drawn) [SW208070, 2-(butylsulfinyl)pyridin-3-amine]
3. C[S+]([O-])c1sc2nc(-c3cccs3)cc(-c3ccccc3)c2c1N (stereo not drawn) [SW208079]
4. CCCC[S+]([O-])c1sc2ncccc2c1N (stereo not drawn) [SW208064]

11
15.4
43.8
96.2

###

# Test system: 15-PGDH luciferase fusion construct in V9m reporter cell line
# assayName: 15-PGDH-luciferase fusion gene reporter induction, V9m cells
# Format: cell-based
# testConditions: read-out: V9M-SC3 Reporter activity ([…]) (%), V9m reporter cells, […] compound; % induction of luciferase activity over basal level; read-out: V9M-SC3 Reporter activity (2.5 μM) (%)
readoutKind: activation at […] (%)
Answers are plain numbers, in %.

COc1ccc(OC)c(N(CC(=O)N2CCCC2=O)S(=O)(=O)c2ccccc2)c1	-12.4
COc1ccc(OC)c(N(CC(=O)Nc2cc(C)cnc2Cl)S(=O)(=O)c2ccccc2)c1	-15.4
COc1ccc(OC)c(N(CC(=O)OC(C)C)S(=O)(=O)c2ccccc2)c1	-14.5
COc1ccc(OC)c(N(CC(=O)Nc2ccccc2Cl)S(=O)(=O)c2ccccc2)c1	-22
COc1ccc(OC)c(N(CC(=O)Nc2cccnc2)S(=O)(=O)c2ccc(C(C)=O)cc2)c1	12.6
COc1ccc(OC)c(N(CC(=O)Nc2cccnc2)S(=O)(=O)c2ccccc2OC(F)(F)F)c1	2.7
COc1ccc(OC)c(N(CC(=O)Nc2cncc(C)c2)S(=O)(=O)c2ccccc2)c1	-9.04
COc1ccc(OC)c(NCC(=O)Nc2cccnc2)c1	-22
COc1ccc(S(=O)(=O)N(CC(=O)Nc2ccncc2)c2cc(OC)ccc2OC)cc1	188
COc1ccc(OC)c(N(CC(=O)Nc2cccnc2)C(C)=O)c1	-20.7

Fill in activation at […] for each of the 5 compounds listed.
1. COc1ccc(OC)c(N(CC(=O)Nc2ccccn2)S(=O)(=O)c2ccccc2)c1
2. COc1ccc(OC)c(N(CC(=O)N2CCCCC2)S(=O)(=O)c2ccccc2)c1
3. COc1ccc(OC)c(N(CC(=O)N2CCCc3ccccc32)S(=O)(=O)c2ccccc2)c1
4. COc1ccc(OC)c(N(CC(=O)Nc2ccccc2OC)S(=O)(=O)c2ccccc2)c1
5. COc1ccc(OC)c(N(CC(=O)Nc2cccnc2)S(=O)(=O)c2ccccc2Cl)c1

[-10.9, 77.2, 34.9, -30.9, 5.76]

Fill in activation at […] for each of the 4 compounds listed.
1. COc1ccc(S(=O)(=O)N(CC(=O)Nc2cccnc2)c2cc(C(F)(F)F)ccc2C(F)(F)F)cc1
2. COc1ccc(OC)c(N(CC(=O)Nc2cccc(C)c2)S(=O)(=O)c2ccccc2)c1
3. COc1ccc(OC)c(N(CC(=O)N2CCc3ccccc32)S(=O)(=O)c2ccccc2)c1
4. COc1ccc(OC)c(N(CC(=O)Nc2cccnc2)S(=O)(=O)c2ccccc2)c1

[-5.96, -21, 13.3, 116]

###

# Tested on: A549 cells
# assayName: Cellular toxicity on A549 cells (CellTiter-Glo)
# Type: cell-based
# Design: concentration or dose not given beside the values
# testConditions: A549 cells
readoutKind: Decrease Cell viability in A549 cell (%)
Give bare numbers, in %.

Some solved cases for reference:
COc1ccc(OC)c(N(CC(=O)Nc2cccnc2)S(=O)(=O)c2ccc(Br)cc2)c1	−2.56
COc1ccc(OC)c(N(CC(=O)N2CCOCC2)S(=O)(=O)c2ccccc2)c1	−2.13
COc1ccc(S(=O)(=O)N(CC(=O)Nc2ccncc2)c2cc(OC)ccc2OC)cc1	30.59
COc1ccc(S(=O)(=O)N(CC(=O)Nc2cccnc2)c2cc(OC)ccc2OC)cc1	45.18
COc1ccc(OC)c(N(CC(=O)Nc2cc(C)no2)S(=O)(=O)c2ccccc2)c1	−2.70

Fill in Decrease Cell viability in A549 cell (%) for each of the 3 compounds listed.
1. COc1ccc(OC)c(N(CC(=O)Nc2csnc2C)S(=O)(=O)c2ccccc2)c1
2. COc1ccc(OC)c(N(CC(=O)Nc2cccnc2)S(=O)(=O)c2ccc(F)cc2)c1
3. COc1ccc(OC)c(N(CC(=O)Nc2nccs2)S(=O)(=O)c2ccccc2)c1

1: −1.97; 2: −3.06; 3: 0.00

###

I'd appreciate it if you could supply activation at […] values for the items below.
# Test system: 15-PGDH luciferase fusion construct in Vaco503 reporter cell line
# assayName: 15-PGDH-luciferase fusion gene reporter induction, V503 cells
# Type: cell-based
# testConditions: read-out: V503 reporter activity ([…]), […]; % induction over basal level; Table 17; read-out: V503 reporter activity (2.5 μM)
Answers are plain numbers, in %.

COc1ccc(OC)c(N(CC(=O)Nc2cccc(Cl)c2)S(=O)(=O)c2ccc(OC)c(OC)c2)c1 [compound 785254]	16.1
COc1ccc(OC)c(N(CC(=O)Nc2cccc(Br)c2)S(=O)(=O)c2ccc(OC)c(OC)c2)c1 [compound 939417]	12.6
COc1ccccc1N(CC(=O)Nc1ccc(F)c(Cl)c1)S(=O)(=O)c1ccccc1 [compound 537833]	42.3
COc1ccc(N(CC(=O)Nc2ccc(CC#N)cc2)S(=O)(=O)c2ccccc2)cc1Cl [compound 919576]	49.2

Fill in activation at […] for each of the 6 compounds listed.
1. COc1ccc(OC)c(N(CC(=O)Nc2ccc(Br)cc2F)S(=O)(=O)c2ccc(C)cc2)c1 [compound 1004292]
2. COc1ccc(N(CC(=O)Nc2ccc(C(C)=O)cc2)S(=O)(=O)c2ccccc2)cc1Cl [compound 539430]
3. O=C(CN(c1ccc(F)cc1)S(=O)(=O)c1ccccc1)Nc1cccnc1 [compound 414177]
4. O=C(CN(c1ccccn1)S(=O)(=O)c1ccccc1)Nc1ccccc1 [compound 543512]
5. COc1ccc(N(CC(=O)Nc2ccc(C(=O)O)cc2)S(=O)(=O)c2ccccc2)cc1 [compound 742790]
6. O=C(CN(c1ccccc1)S(=O)(=O)c1ccccc1)Nc1ccccn1 [compound 414183]

1: 23.5; 2: 38.8; 3: -2.8; 4: -4.56; 5: 5.94; 6: 11.5

###

# Test system: 15-PGDH luciferase fusion construct in Vaco503 reporter cell line
# assayName: 15-PGDH-luciferase fusion gene reporter induction, V503 cells
# Type: cell-based
# testConditions: read-out: V503 reporter activity ([…]), […]; % induction over basal level; Table 17; read-out: V503 reporter activity (2.5 μM)
readoutKind: activation at […] (%)
Numbers only, in %.

CCOc1ccccc1N(CC(=O)Nc1ccccc1Br)S(=O)(=O)c1ccc(C)cc1 [compound 771074]	23
COc1ccc(NC(=O)CN(c2ccccc2)S(=O)(=O)c2ccccc2)cc1 [compound 474759]	-5.04
COc1ccc(NC(=O)CN(c2ccccc2OC)S(C)(=O)=O)cc1 [compound 920847]	-4.47
COc1ccc(OC)c(N(CC(=O)Nc2ccccc2F)S(=O)(=O)c2ccccc2)c1 [compound 503270]	29.9
COc1ccc(OC)c(N(CC(=O)NC(C)c2ccccc2)S(=O)(=O)c2ccc(OC)c(OC)c2)c1 (centres unmarked) [compound 967134]	18.4
COc1ccc(OC)c(N(CC(=O)Nc2ccccc2C(=O)NC(C)C)S(=O)(=O)c2ccc(OC)c(OC)c2)c1 [compound 1003378]	7.23
COc1ccc(OC)c(N(CC(=O)Nc2ccc(I)cc2)S(=O)(=O)c2ccc(C)cc2)c1 [compound 771146]	-49.7

Note: attention shifts to another entry.
Test system 15-PGDH luciferase fusion construct in Vaco503 reporter cell line; read-out activation at […]; what value for CCc1cccc(CC)c1NC(=O)CN(c1cc(OC)ccc1OC)S(=O)(=O)c1ccc(OC)c(OC)c1 [compound 1003429] ?
-7.46

###

I'd appreciate it if you could supply activation at […] values for the items below.
# Tested on: 15-PGDH luciferase fusion construct in V9m reporter cell line
# assayName: 15-PGDH-luciferase fusion gene reporter induction, V9m cells
# Type: cell-based
# testConditions: read-out: V9M-SC3 Reporter activity ([…]) (%), V9m reporter cells, […] compound; % induction of luciferase activity over basal level; read-out: V9M-SC3 Reporter activity (2.5 μM) (%)
Numbers only, in %.

Some solved cases for reference:
COc1ccc(OC)c(N(CC(=O)Nc2cnccc2C)S(=O)(=O)c2ccccc2)c1 [SW202967]	-16
COc1ccc(OC)c(N(CC(=O)N2CCCC2)S(=O)(=O)c2ccccc2)c1 [SW208001]	19.6

Fill in activation at […] for each of the 6 compounds listed.
1. COc1ccc(OC)c(N(CC(=O)Nc2cccnc2)S(=O)(=O)c2c(C)cc(C)cc2C)c1 [SW202953]
2. COc1ccc(OC)c(N(CC(=O)Nc2cnccn2)S(=O)(=O)c2ccccc2)c1 [SW203681]
3. COc1ccc(OC)c(N(CC(=O)Nc2nccs2)S(=O)(=O)c2ccccc2)c1 [SW203691]
4. COc1ccc(OC)c(N(CC(=O)O)S(=O)(=O)c2ccccc2)c1 [SW122063]
5. COc1ccc(OC)c(N(CC(=O)Nc2ccccc2)S(=O)(=O)c2ccccc2)c1 [SW203687]
6. COc1ccc(S(=O)(=O)N(CC(=O)N2CCCCCC2)c2cc(OC)ccc2OC)cc1 [SW207998]

13
18
7.78
1.67
28.2
53.4

Fill in activation at […] for each of the 3 compounds listed.
1. COc1ccc(OC)c(N(CC(=O)Nc2cccc(Cl)c2)S(=O)(=O)c2ccccc2)c1 [SW202985]
2. COc1ccc(OC)c(N(CC(=O)N2CCOCC2)S(=O)(=O)c2ccccc2)c1 [SW125991]
3. COc1ccc(OC)c(N(CC(=O)Nc2ccnc(F)c2)S(=O)(=O)c2ccccc2)c1 [SW208005]

1. -27.3
2. 77.4
3. 42.4

Data provenance: patent US9790233B2
